FYI, the data here is from paper PMC9585939.

reported.endpoint: melting point

Please review the following examples before continuing.
CC1(C)SC2N(C(=O)C23CC=C(C(=O)Oc2ccccc2)C3C(=O)c2ccccc2)C1C(=O)OC(c1ccccc1)c1ccccc1 (stereo not drawn); > 137 °C (dec.)
CC1(C)SC2N(C(=O)C23CC=C(C(=O)OCC=Cc2ccccc2)C3C(=O)c2ccc(Br)cc2)C1C(=O)OC(c1ccccc1)c1ccccc1 (stereo not drawn) [Compound 14i]; 89.1 to 91.1 °C
CC1(C)SC2N(C(=O)C23CC=C(C(=O)OCc2ccccc2)C3C(=O)c2ccc(F)cc2)C1C(=O)OC(c1ccccc1)c1ccccc1 (stereo not drawn) [Compound 12a]; 64.5 to 66.5 °C
CC1(C)SC2N(C(=O)C23CC=C(C(=O)OCC=Cc2ccccc2)C3C(=O)c2ccc(Cl)cc2)C1C(=O)OC(c1ccccc1)c1ccccc1 (stereo not drawn) [Compound 14f]; 81.7 to 83.7 °C
CC1(C)SC2N(C(=O)C23CC=C(C(=O)OCc2ccc([N+](=O)[O-])cc2)C3C(=O)c2ccccc2)C1C(=O)OC(c1ccccc1)c1ccccc1 (stereo not drawn); 81.2 to 83.1 °C

get_value(item= Cc1ccc(COC(=O)C2=CCC3(C(=O)N4C(C(=O)OC(c5ccccc5)c5ccccc5)C(C)(C)SC43)C2C(=O)c2ccc(Cl)cc2)cc1 (stereo not drawn) [Compound 14e] , readout=melting point) returns 79.5 to 81.5 °C

Item: CC1(C)SC2N(C(=O)C23CC=C(C(=O)OCc2ccc(F)cc2)C3C(=O)c2ccccc2)C1C(=O)OC(c1ccccc1)c1ccccc1 (stereo not drawn) | melting point: 67.2 to 69.3 °C

melting point measured on CC1(C)SC2N(C(=O)C23CC=C(C(=O)OCc2ccccc2)C3C(=O)c2ccc(C(F)(F)F)cc2)C1C(=O)OC(c1ccccc1)c1ccccc1 (stereo not drawn) [Compound 12e] = 134.1 to 135.5 °C
